Entry source: patent US20140005165A1

Molecular target: human CCR2 (Homo sapiens)
Construct: expressed in transfected cells; host or cells: Ba/F3 cells (membrane preparation)
Sequence (P41597 whole entry): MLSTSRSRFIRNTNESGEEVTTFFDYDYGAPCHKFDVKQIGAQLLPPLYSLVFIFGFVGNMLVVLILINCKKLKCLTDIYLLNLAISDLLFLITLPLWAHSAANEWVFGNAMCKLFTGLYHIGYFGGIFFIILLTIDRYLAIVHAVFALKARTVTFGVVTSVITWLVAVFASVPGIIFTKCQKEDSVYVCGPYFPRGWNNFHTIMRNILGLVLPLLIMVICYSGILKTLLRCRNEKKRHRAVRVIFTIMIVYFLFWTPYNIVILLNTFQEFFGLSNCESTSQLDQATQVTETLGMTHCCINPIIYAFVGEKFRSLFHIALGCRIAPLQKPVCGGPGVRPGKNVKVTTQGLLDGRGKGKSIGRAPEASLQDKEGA
Assay: CCR2 Membrane Binding Assay (SPA radio-ligand binding, 125I-rhMCP-1)
Conditions: membranes from Ba/F3 cells transfected with human CCR2; 0.03 nM 125I-rhMCP-1; class symbols

{"columns": ["Compound", "IC50"],
 "data": [
  ["COc1ccc(C[C@H]2CC[C@@H](N3C[C@@H]4[C@H](C3)[C@H]4C(=O)NCC(=O)Nc3cccc(C(F)(F)F)c3)CC2)cc1 [Compound 145]", "51 to 200 nM"],
  ["O=C(CNC(=O)[C@H]1[C@@H]2CN([C@H]3CC[C@H](c4ccccn4)CC3)C[C@@H]21)Nc1cccc(C(F)(F)F)c1 [Compound 84]", "201 to 700 nM"],
  ["O=C([C@H]1[C@@H]2CN([C@H]3CC[C@@H](c4ccccc4)CC3)C[C@@H]21)N1CCC(c2ccc(C(F)(F)F)cc2)C1 (stereo partly drawn) [Compound 73]", "51 to 200 nM"]
]}
